As an illustration, consider measured log(1/C) for compounds on Dihydrofolate reductase (Rattus norvegicus) (UniProt Q920D2).
value type: log(1/C)

Recorded results for 4 compounds are shown here.
Nc1nc(N)c2c(Cl)c(NC(=O)Cc3ccc(Cl)cc3)ccc2n1 :: 7.92
Nc1nc(S)c2ccccc2n1 :: 4.37
Nc1ncnc2ccc([S+]([O-])c3ccc4ccccc4c3)cc12 (configuration not stated) :: 4.82
Nc1nc(N)c2c(Sc3ccc4ccccc4c3)cccc2n1 :: 6.92

P. Nc1nc(N)c2c(Cl)c(NC(=O)COc3ccc(Cl)c(Cl)c3)ccc2n1
Q. Nc1nc(O)c2c(Cl)cccc2n1
From the recorded data, which exceeds the other in log(1/C): P or Q ? Please indicate the selected item by its label.
P
(P: 7.64, Q: 4.66)
